tested.target: UniProt P10275
Sequence (P10275 1-920) 1: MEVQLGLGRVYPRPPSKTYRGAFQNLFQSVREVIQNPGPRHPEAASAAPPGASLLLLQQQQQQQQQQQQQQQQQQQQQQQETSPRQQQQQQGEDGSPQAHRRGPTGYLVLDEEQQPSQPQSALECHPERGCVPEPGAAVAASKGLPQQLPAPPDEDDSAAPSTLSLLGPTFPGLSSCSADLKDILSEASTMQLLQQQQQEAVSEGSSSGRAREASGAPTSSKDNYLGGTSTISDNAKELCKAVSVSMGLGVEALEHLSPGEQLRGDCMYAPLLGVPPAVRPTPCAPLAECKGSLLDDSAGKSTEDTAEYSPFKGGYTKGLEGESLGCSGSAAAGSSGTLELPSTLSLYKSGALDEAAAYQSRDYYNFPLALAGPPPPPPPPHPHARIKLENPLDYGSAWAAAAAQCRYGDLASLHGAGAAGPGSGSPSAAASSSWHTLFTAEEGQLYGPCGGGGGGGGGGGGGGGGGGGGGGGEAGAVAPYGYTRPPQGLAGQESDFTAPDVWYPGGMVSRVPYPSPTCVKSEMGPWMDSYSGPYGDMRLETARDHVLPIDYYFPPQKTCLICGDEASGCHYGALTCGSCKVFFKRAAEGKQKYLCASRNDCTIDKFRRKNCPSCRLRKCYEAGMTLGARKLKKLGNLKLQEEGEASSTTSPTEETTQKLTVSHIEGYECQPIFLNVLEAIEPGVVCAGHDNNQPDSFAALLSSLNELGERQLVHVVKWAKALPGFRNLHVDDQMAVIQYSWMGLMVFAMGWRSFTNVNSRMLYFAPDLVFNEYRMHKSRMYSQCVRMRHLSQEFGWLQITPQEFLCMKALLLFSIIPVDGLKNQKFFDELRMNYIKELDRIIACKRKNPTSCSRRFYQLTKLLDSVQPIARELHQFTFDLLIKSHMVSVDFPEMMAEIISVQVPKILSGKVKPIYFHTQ
Sequence (P10275 1-920) 2: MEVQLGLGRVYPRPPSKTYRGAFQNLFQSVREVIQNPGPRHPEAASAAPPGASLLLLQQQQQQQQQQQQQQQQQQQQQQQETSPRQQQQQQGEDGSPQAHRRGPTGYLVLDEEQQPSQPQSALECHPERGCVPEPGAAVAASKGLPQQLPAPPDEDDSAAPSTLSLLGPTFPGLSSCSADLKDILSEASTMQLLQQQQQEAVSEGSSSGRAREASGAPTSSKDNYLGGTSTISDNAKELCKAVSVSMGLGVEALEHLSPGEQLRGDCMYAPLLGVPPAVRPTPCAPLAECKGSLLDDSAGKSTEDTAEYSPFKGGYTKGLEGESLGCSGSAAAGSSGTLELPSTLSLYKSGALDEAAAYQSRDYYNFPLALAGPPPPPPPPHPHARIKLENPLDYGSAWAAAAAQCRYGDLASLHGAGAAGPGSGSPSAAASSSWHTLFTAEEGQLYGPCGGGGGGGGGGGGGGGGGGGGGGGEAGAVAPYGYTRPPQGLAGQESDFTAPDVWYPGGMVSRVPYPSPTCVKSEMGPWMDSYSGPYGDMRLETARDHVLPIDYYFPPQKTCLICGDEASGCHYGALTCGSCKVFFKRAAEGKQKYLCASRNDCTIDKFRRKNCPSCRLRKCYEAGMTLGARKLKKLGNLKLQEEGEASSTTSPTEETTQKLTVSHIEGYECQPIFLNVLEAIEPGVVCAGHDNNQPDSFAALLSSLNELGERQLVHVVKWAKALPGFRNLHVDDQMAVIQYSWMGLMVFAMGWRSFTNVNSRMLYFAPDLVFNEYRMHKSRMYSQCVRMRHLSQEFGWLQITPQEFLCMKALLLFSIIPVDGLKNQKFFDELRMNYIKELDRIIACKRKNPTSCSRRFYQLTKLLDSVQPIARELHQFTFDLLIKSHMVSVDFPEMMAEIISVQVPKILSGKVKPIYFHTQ
measurement.description: AR2 assay, antagonist mode: disruption of R1881 (10 nM)-induced AR homodimerization in HepG2-AR2 cells
Assay type: cell-based
Here, each record is paired with measured max_med (maximum median response) data.
assay.metric: max_med (maximum median response)

>>> endpoint_result("CCCCNC(=O)n1c(NC(=O)OC)nc2ccccc21")
31.5571
>>> endpoint_result("O=C1C[C@@H](c2ccc(O)cc2)Oc2cc(O)cc(O)c21")
37.0321
>>> endpoint_result("CCCC1COC(Cn2cncn2)(c2ccc(Cl)cc2Cl)O1 (centres unmarked)")
96.3637
>>> endpoint_result("COC(=O)Nc1nc2ccccc2[nH]1")
16.7598
>>> endpoint_result("CC1(C)C(C=C(Cl)Cl)C1C(=O)OCc1cccc(Oc2ccccc2)c1 (centres unmarked)")
53.132
>>> endpoint_result("C[C@]12C=CC3=C4CCC(=O)C=C4CC[C@H]3[C@@H]1CC[C@@H]2O")
20.7317
>>> endpoint_result("CCC(=O)O[C@H]1CC[C@H]2[C@@H]3CCC4=CC(=O)CC[C@]4(C)[C@H]3CC[C@]12C [Testosterone propionate]")
102.627
>>> endpoint_result("CCCN(CCC)c1c([N+](=O)[O-])cc(C(F)(F)F)cc1[N+](=O)[O-]")
39.0604
>>> endpoint_result("O=c1c(-c2ccc(O)cc2)coc2cc(O)cc(O)c12")
101.398
>>> endpoint_result("C[C@]12CC[C@H]3C(=CCc4cc(O)ccc43)[C@@H]1CCC2=O")
92.3262
>>> endpoint_result("CC12CC1(C)C(=O)N(c1cc(Cl)cc(Cl)c1)C2=O (centres unmarked)")
95.0019

The measurements presented in this section are drawn from paper PMC10112521.
